# Experimental System: human Nav1.8 (hNav1.8) ion channel (Homo sapiens, UniProt Q9Y5Y9)
# Construct: expressed in transfected cells
# Sequence (Q9Y5Y9 whole entry): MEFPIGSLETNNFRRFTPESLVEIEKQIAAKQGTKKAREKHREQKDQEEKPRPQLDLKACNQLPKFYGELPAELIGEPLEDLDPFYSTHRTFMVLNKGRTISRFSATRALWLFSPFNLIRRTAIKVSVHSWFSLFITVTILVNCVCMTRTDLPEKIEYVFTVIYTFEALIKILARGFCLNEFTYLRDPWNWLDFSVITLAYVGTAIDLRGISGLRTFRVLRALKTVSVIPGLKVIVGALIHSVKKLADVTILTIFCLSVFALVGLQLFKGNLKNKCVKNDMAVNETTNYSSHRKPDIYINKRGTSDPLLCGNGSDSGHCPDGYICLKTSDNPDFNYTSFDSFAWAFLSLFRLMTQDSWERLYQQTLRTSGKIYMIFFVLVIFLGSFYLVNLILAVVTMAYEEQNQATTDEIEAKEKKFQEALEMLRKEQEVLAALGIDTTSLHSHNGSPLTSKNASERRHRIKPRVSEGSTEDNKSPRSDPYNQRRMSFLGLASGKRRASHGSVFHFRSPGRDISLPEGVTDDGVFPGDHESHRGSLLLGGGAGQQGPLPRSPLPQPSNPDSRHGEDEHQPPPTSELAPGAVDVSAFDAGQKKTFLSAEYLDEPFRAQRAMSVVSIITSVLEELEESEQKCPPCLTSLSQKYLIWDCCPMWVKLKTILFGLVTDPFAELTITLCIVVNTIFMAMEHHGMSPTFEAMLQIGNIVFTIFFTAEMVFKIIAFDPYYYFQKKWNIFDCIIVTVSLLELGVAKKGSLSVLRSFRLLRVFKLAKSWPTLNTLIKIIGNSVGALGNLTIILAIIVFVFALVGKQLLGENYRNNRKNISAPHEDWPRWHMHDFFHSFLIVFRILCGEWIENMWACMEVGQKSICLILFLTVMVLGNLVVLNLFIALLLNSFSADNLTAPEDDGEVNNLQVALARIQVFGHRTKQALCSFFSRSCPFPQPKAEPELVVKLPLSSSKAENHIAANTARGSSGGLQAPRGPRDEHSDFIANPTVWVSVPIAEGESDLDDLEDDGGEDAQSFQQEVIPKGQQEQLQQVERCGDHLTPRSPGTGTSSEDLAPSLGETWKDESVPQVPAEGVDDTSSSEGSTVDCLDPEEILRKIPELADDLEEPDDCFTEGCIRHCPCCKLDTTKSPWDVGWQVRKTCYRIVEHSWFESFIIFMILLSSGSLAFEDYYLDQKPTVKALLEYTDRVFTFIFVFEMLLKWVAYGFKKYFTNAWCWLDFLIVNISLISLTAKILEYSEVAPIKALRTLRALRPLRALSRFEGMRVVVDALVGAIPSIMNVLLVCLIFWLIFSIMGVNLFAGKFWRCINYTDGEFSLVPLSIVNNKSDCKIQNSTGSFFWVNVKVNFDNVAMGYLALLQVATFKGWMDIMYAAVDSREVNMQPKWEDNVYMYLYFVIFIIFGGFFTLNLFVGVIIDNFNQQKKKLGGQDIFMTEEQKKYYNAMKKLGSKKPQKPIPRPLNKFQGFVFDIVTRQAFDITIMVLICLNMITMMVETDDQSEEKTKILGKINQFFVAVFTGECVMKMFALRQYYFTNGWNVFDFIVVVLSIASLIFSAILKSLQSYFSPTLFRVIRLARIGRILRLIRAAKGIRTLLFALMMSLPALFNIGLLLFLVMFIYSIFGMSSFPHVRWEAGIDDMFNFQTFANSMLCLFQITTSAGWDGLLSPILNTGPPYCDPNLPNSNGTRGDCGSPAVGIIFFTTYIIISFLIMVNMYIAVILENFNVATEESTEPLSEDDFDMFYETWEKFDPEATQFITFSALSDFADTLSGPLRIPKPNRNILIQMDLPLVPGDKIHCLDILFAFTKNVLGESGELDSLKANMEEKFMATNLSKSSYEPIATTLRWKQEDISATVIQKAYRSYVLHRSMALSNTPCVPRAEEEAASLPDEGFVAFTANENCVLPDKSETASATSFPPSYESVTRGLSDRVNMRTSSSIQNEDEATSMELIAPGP
# Test Summary: Inhibition of human Nav1.8 stably expressed in SH-SY-5Y cells (membrane potential dye fluorescence assay)
# Assay type: cell-based
# Assay Conditions: Table 2 (compound numbers of the list in the description); SH-SY-5Y hNav1.8 cells, inhibition of membrane depolarisation, FLIPR membrane potential dye, 250 nM TTX, test concentration range 100 μM-0.05 μM; read-out: IC50
# Experimental: Inhibition of Human Nav1.8 Stably Expressed in SH-SY-5Y Cells A SH-SY-5Y neuroblastoma cell line stably expressing the human […] (hNav1.8) ion channel was constructed. […] Cell plates are incubated for 30 minutes at room temperature to allow equilibration of dye and test compound. Plates are then transferred to a fluorescence plate reader for fluorescence measurement using an excitation wavelength of 530 nm whilst measuring fluorescence emission at 565 nm. […]
pIC50: −log10 of the molar value.
Property Measured: pIC50

molecule="O=C(CN1CCc2cccc(O)c2C1)N1c2ccccc2Sc2ccc(C(F)(F)F)cc21 [Compound 145]" value_reported=5.58
molecule="O=C(CN1CCc2cc(O)ccc2C1)N1c2ccccc2Oc2ccccc21 [Compound 194]" value_reported=5.54
molecule="COc1ccc(C(CCNC(=O)CN2CCc3cccc(OC)c3C2)c2ccc(OC)cc2)cc1 [Compound 115]" value_reported=5.63
molecule="COc1ccc(OC)c(C2COc3ccccc3N2C(=O)CN2CCc3cccc(OC)c3C2)c1 (stereo not shown) [Compound 213]" value_reported=5.08

----------
# Experimental System: human Nav1.8 (hNav1.8) ion channel (Homo sapiens, UniProt Q9Y5Y9)
# Construct: expressed in transfected cells
# Test Summary: Inhibition of human Nav1.8 stably expressed in SH-SY-5Y cells (membrane potential dye fluorescence assay)
# Assay type: cell-based
# Assay Conditions: Table 2 (compound numbers of the list in the description); SH-SY-5Y hNav1.8 cells, inhibition of membrane depolarisation, FLIPR membrane potential dye, 250 nM TTX, test concentration range 100 μM-0.05 μM; read-out: IC50
Property Measured: log10(IC50) (log10 of the value in µM)

substance_smiles=COc1cc2c(cc1OC)CN(CC(=O)NCC(c1ccccc1)c1ccccc1)CC2 experimental_system="human Nav1.8 (hNav1.8) ion channel (Homo sapiens, UniProt Q9Y5Y9)" property_measured=log10(IC50) value_reported=0.29
substance_smiles=Nc1cccc2c1CN(CC(=O)NC(c1ccccc1)c1ccccc1)CC2 experimental_system="human Nav1.8 (hNav1.8) ion channel (Homo sapiens, UniProt Q9Y5Y9)" property_measured=log10(IC50) value_reported=0.54
substance_smiles=COc1ccc2c(c1)CCCN(CC(=O)NCCC(c1ccccc1)c1ccccc1)C2 experimental_system="human Nav1.8 (hNav1.8) ion channel (Homo sapiens, UniProt Q9Y5Y9)" property_measured=log10(IC50) value_reported=0.03
substance_smiles=COc1cc2c(cc1OC)CN(CCNC(=S)NCC(c1ccccc1)c1ccccc1)CC2 experimental_system="human Nav1.8 (hNav1.8) ion channel (Homo sapiens, UniProt Q9Y5Y9)" property_measured=log10(IC50) value_reported=-0.28
substance_smiles=COc1cccc2c1CN(CC(=O)N1c3ccccc3[S+]([O-])c3ccccc31)CC2 experimental_system="human Nav1.8 (hNav1.8) ion channel (Homo sapiens, UniProt Q9Y5Y9)" property_measured=log10(IC50) value_reported=0.98
substance_smiles=CS(=O)(=O)Nc1cccc2c1CN(CC(=O)NCCCC(c1ccccc1)c1ccccc1)CC2 experimental_system="human Nav1.8 (hNav1.8) ion channel (Homo sapiens, UniProt Q9Y5Y9)" property_measured=log10(IC50) value_reported=0.13
substance_smiles=COc1cccc2c1CN(CCNC(=O)N1c3ccccc3Sc3ccccc31)CC2 experimental_system="human Nav1.8 (hNav1.8) ion channel (Homo sapiens, UniProt Q9Y5Y9)" property_measured=log10(IC50) value_reported=-0.01
